The measured values listed here are drawn from patent US20260102461A1.

# system: T1, KAAG1 disordered region peptide, PGAAAAHLPRWPPPQLAASRREA (biotin (position not given))
# T1 peptide: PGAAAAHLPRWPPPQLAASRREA
# procedure_details: ELISA, scaffold coated on the plate, biotinylated peptide titrated, streptavidin-HRP fluorescence
observed_property: binding result

S090 (designed binder, Rationally designed from v1.1 (S005); By SEC it is a mixture of monomers, dimers and multimers, at least 50% monomer; also called v1.2; scaffold v1.2) IKEEHSIRQNEMYLNPDQSGLFEFHLDGQPIFRVDMQKKRTKWQLEEFGRFASFEAQGALANIAVDKANLEIMTKRSNQSEAGSHSWQLIFVCEFHEGTESVRLSERCYYNQELSVSFNSDVGEYRAVTELGRPDAEYWNSQKDLLEQRRAAVDTYCRHNYGVGESFTVQRRGGSHHHHHHLE | binds
S005 (designed binder, Engineered scaffold derived from MHC II; derived from S007 by removing the immunoglobulin unit; also called v1.1; scaffold v1.1) MIKEEHVIIQAEFYLNPDQSGEFMFDFDGDEIFHVDMAKKETVWRLEEFGRFASFEAQGALANIAVDKANLEIMTKRSNYTPMGDTRPRFLWQLKFECHFFNGTERVRLLERCIYNQEESVRFDSDVGEYRAVTELGRPDAEYWNSQKDLLEQRRAAVDTYCRHNYGVGESFTVQGGSHHHHHHLE | binds
